IC50 data for UniProtKB O43283 follow.

>  <Compound>
CC[C@H](NC(=O)c1cc(-c2cc(C(=O)NC(C)C)n3nc(N)nc3c2)cs1)c1ccc(F)cc1

>  <Target>
UniProtKB O43283

>  <Display unit>
µM

>  <Cmp>
=

>  <IC50>
0.089

$$$$
>  <Compound>
Nc1nc2ccc(-c3csc(C(=O)NC4CCCOC4)c3)cn2n1 (centres unmarked)

>  <Target>
UniProtKB O43283

>  <Display unit>
µM

>  <Cmp>
=

>  <IC50>
24

$$$$
>  <Compound>
CC(NC(=O)c1cc(-c2csc(C(=O)N[C@@H](C)c3ccccc3)c2)cn2nc(N)nc12)C(F)(F)F (mixture of isomers)

>  <Target>
UniProtKB O43283

>  <Display unit>
µM

>  <Cmp>
=

>  <IC50>
0.13

$$$$
>  <Compound>
Nc1nc2ccc(-c3csc(C(=O)NCc4ccc(CN5CCCC5)cc4)c3)cn2n1

>  <Target>
UniProtKB O43283

>  <Display unit>
µM

>  <Cmp>
=

>  <IC50>
21

$$$$
>  <Compound>
Nc1nc2ccc(-c3csc(C(=O)NCc4ccsc4)c3)cn2n1

>  <Target>
UniProtKB O43283

>  <Display unit>
µM

>  <Cmp>
=

>  <IC50>
14

$$$$
>  <Compound>
COc1cc(CNC(=O)c2cc(-c3ccc4nc(N)nn4c3)cs2)ccc1F

>  <Target>
UniProtKB O43283

>  <Display unit>
µM

>  <Cmp>
=

>  <IC50>
11

$$$$
>  <Compound>
CC(C)NC(=O)c1cc(-c2csc(C(=O)N[C@@H](C)c3ccc(F)cc3)c2)cc2nc(N)nn12

>  <Target>
UniProtKB O43283

>  <Display unit>
µM

>  <Cmp>
=

>  <IC50>
0.1

$$$$
>  <Compound>
CC(NC(=O)c1cc(-c2csc(C(=O)N[C@@H](C)c3ccc(F)cc3)c2)cn2nc(N)nc12)C(F)(F)F (mixture of isomers)

>  <Target>
UniProtKB O43283

>  <Display unit>
µM

>  <Cmp>
=

>  <IC50>
0.24

$$$$
>  <Compound>
C[C@H](NC(=O)c1cc(-c2cc(C(=O)N[C@H]3CCOC3)c3nc(N)nn3c2)cs1)c1ccccc1

>  <Target>
UniProtKB O43283

>  <Display unit>
µM

>  <Cmp>
=

>  <IC50>
0.071

$$$$
>  <Compound>
Nc1nc2ccc(-c3csc(C(=O)NCc4ccc(OCCN5CCOCC5)cc4)c3)cn2n1

>  <Target>
UniProtKB O43283

>  <Display unit>
µM

>  <Cmp>
>

>  <IC50>
30

$$$$
>  <Compound>
C[C@H](NC(=O)c1cc(-c2ccc3nc(N)nn3c2)cs1)c1ccc(F)cc1

>  <Target>
UniProtKB O43283

>  <Display unit>
µM

>  <Cmp>
=

>  <IC50>
1.13

$$$$
>  <Compound>
COc1ccc2oc(CNC(=O)c3cc(-c4ccc5nc(N)nn5c4)cs3)nc2c1

>  <Target>
UniProtKB O43283

>  <Display unit>
µM

>  <Cmp>
=

>  <IC50>
3.8

$$$$
>  <Compound>
Nc1nc2ccc(-c3csc(C(=O)NC(c4ccccc4)C4CC4)c3)cn2n1 (centres unmarked) [Compound 347]

>  <Target>
UniProtKB O43283

>  <Display unit>
µM

>  <Cmp>
>

>  <IC50>
30

$$$$
>  <Compound>
CC(C)Oc1cccc(CNC(=O)c2cc(-c3ccc4nc(N)nn4c3)cs2)c1

>  <Target>
UniProtKB O43283

>  <Display unit>
µM

>  <Cmp>
=

>  <IC50>
9.49

$$$$
>  <Compound>
Cc1sc(C(=O)NC2CCCCC2)cc1-c1ccc2nc(N)nn2c1

>  <Target>
UniProtKB O43283

>  <Display unit>
µM

>  <Cmp>
>

>  <IC50>
30

$$$$
>  <Compound>
Nc1nc2ccc(-c3csc(C(=O)NCC4CCCCC4)c3)cn2n1

>  <Target>
UniProtKB O43283

>  <Display unit>
µM

>  <Cmp>
>

>  <IC50>
30

$$$$
>  <Compound>
CN(C(=O)c1cc(-c2ccc3nc(N)nn3c2)cs1)C1CCCCC1

>  <Target>
UniProtKB O43283

>  <Display unit>
µM

>  <Cmp>
>

>  <IC50>
30

$$$$

* * *

# Target: DLK (Homo sapiens (Human))
# Sequence (Q12852 1-520): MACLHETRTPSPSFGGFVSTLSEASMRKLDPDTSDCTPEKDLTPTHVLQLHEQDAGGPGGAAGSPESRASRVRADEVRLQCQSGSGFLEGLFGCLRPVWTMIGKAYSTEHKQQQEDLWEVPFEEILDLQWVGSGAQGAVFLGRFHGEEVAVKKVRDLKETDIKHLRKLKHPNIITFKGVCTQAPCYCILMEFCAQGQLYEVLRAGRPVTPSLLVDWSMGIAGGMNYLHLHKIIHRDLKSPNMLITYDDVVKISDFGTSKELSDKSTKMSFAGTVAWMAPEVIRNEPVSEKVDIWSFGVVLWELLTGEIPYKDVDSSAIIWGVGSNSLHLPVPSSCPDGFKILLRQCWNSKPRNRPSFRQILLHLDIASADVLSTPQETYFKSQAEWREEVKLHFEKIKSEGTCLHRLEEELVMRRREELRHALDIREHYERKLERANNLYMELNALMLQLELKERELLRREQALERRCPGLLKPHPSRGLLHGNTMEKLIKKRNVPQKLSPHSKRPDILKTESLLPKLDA
pIC50: −log10 of the molar value.
Quick reference for pIC50 among some compounds

>  <Compound>
CC[C@H](C)NC(=O)c1cc(-c2csc(C(=O)N[C@@H](COC)c3ccccc3)c2)cn2nc(N)nc12 [Compound 116]

>  <Target>
DLK (Homo sapiens (Human))

>  <pIC50>
8.66

$$$$
>  <Compound>
CC[C@@H](C)NC(=O)c1cc(-c2csc(C(=O)N[C@@H](CC)c3ccc(F)cc3)c2)cn2nc(N)nc12 [Compound 144]

>  <Target>
DLK (Homo sapiens (Human))

>  <pIC50>
7.42

$$$$
>  <Compound>
CC[C@H](C)NC(=O)c1cc(-c2csc(C(=O)N[C@@H](C)c3ccc(F)cc3)c2)cn2nc(N)nc12 [Compound 94]

>  <Target>
DLK (Homo sapiens (Human))

>  <pIC50>
8.32

$$$$
>  <Compound>
CC[C@H](NC(=O)c1cc(-c2cc(C(=O)NC(C)(C)C)c3nc(N)nn3c2)cs1)c1ccccc1 [Compound 84]

>  <Target>
DLK (Homo sapiens (Human))

>  <pIC50>
7.72

$$$$
>  <Compound>
CN1CCCCC1CNC(=O)c1cc(-c2ccc3nc(N)nn3c2)cs1 (stereo not shown) [Compound 230]

>  <Target>
DLK (Homo sapiens (Human))

>  <pIC50>
5.60

$$$$
>  <Compound>
Nc1nc2ccc(-c3csc(C(=O)NCc4cnc(Cl)s4)c3)cn2n1 [Compound 250]

>  <Target>
DLK (Homo sapiens (Human))

>  <pIC50>
6.03

$$$$
>  <Compound>
CC(C)NC(=O)c1cc(-c2csc(C(=O)NC3CC(C)(C)Oc4ccccc43)c2)cn2nc(N)nc12 (stereo not shown) [Compound 131]

>  <Target>
DLK (Homo sapiens (Human))

>  <pIC50>
7.20

$$$$

* * *

# Target: LZK (Homo sapiens (Human), UniProt O43283)
# Sequence (O43283 168-409): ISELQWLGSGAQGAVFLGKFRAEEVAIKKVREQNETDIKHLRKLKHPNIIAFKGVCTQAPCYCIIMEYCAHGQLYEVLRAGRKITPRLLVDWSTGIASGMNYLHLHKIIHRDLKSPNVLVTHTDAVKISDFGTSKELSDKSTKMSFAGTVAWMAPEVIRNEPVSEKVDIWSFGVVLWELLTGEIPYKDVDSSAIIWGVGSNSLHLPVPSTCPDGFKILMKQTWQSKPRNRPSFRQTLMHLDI
# note: exactly 1 µM is not below, so it is False; use True for IC50 strictly under it

>  <Compound>
Nc1nc2c(C(=O)NC3CC3)cc(-c3csc(C(=O)NCc4ccccc4)c3)cn2n1

>  <Group>
False

$$$$
>  <Compound>
Nc1nc2ccc(-c3csc(C(=O)N[C@H](c4ccccc4)C(F)(F)F)c3)cn2n1

>  <Group>
False

$$$$
>  <Compound>
CC(C)NC(=O)c1cc(-c2csc(C(=O)NC3CC(C)(C)Oc4ccccc43)c2)cn2nc(N)nc12 (centres unmarked) [Compound 121]

>  <Group>
True

$$$$
>  <Compound>
Nc1nc2cc(-c3csc(C(=O)NCc4ccccc4)c3)ccn2n1

>  <Group>
False

$$$$
>  <Compound>
Nc1nc2ccc(-c3csc(C(=O)NCc4ccc(OCCN5CCCCC5)cc4)c3)cn2n1

>  <Group>
False

$$$$
>  <Compound>
CC[C@H](C)NC(=O)c1cc(-c2csc(C(=O)NC3(c4ccc(F)cc4)CCCC3)c2)cn2nc(N)nc12

>  <Group>
True

$$$$
>  <Compound>
COCCNC(=O)c1cc(-c2csc(C(=O)NCc3ccc(F)cc3)c2)cn2nc(N)nc12

>  <Group>
True

$$$$
>  <Compound>
CNC(=O)c1cc(-c2csc(C(=O)NCc3ccc(F)cc3)c2)cn2nc(N)nc12

>  <Group>
False

$$$$

* * *

IC50 data for DLK (Homo sapiens (Human), UniProt Q12852) follow.

>  <Compound>
Nc1nc2ccc(-c3csc(C(=O)NC(c4ccccc4)C4CC4)c3)cn2n1 (centres unmarked)

>  <IC50, nM>
130

$$$$
>  <Compound>
Nc1nc2ccc(-c3csc(C(=O)NC4COC4)c3)cn2n1

>  <IC50, nM>
4300

$$$$
>  <Compound>
COCc1cc(-c2csc(C(=O)N[C@@H](C)c3ccc(F)cc3)c2)cn2nc(N)nc12

>  <IC50, nM>
210

$$$$
>  <Compound>
CC(C)(C)NC(=O)c1cc(-c2csc(C(=O)NCc3ccc(F)cc3)c2)cn2nc(N)nc12

>  <IC50, nM>
58

$$$$
>  <Compound>
Nc1nc2ccc(-c3csc(C(=O)NCc4ccc(CN5CCCC5=O)cc4)c3)cn2n1

>  <IC50, nM>
400

$$$$
>  <Compound>
CC(C)Oc1cccc(CNC(=O)c2cc(-c3ccc4nc(N)nn4c3)cs2)c1

>  <IC50, nM>
350

$$$$
>  <Compound>
CC[C@H](NC(=O)c1cc(-c2cc(C(=O)NC(C)CF)c3nc(N)nn3c2)cs1)c1ccc(F)cc1 (some centres unmarked) [Compound 141]

>  <IC50, nM>
10

$$$$
>  <Compound>
CC(NC(=O)c1cc(-c2ccc3nc(N)nn3c2)cs1)c1ccc(OCC(F)F)cc1 (centres unmarked)

>  <IC50, nM>
210

$$$$
>  <Compound>
Nc1nc2ccc(-c3csc(C(=O)NC4CCOc5ccccc54)c3)cn2n1 (centres unmarked)

>  <IC50, nM>
97

$$$$
>  <Compound>
CC(C)NC(=O)c1cc(-c2csc(C(=O)N[C@@H](C)c3ccc(F)cc3)c2)cc2nc(N)nn12

>  <IC50, nM>
21

$$$$
>  <Compound>
CC(C)NC(=O)c1cc(-c2csc(C(=O)N[C@@H](C)c3ccc(OC(F)(F)F)cc3)c2)cn2nc(N)nc12

>  <IC50, nM>
210

$$$$
>  <Compound>
CN1CCCC(NC(=O)c2cc(-c3ccc4nc(N)nn4c3)cs2)C1 (centres unmarked)

>  <IC50, nM>
3500

$$$$
>  <Compound>
Nc1nc2c(C(=O)NC3CC3)cc(-c3csc(C(=O)NCc4ccc(F)cc4)c3)cn2n1

>  <IC50, nM>
360

$$$$
>  <Compound>
CC[C@H](NC(=O)c1cc(-c2cc(C(=O)NC(C)CF)c3nc(N)nn3c2)cs1)c1ccc(F)cc1 (single isomer, unassigned) [Compound 144-2]

>  <IC50, nM>
23

$$$$
>  <Compound>
C[C@H](NC(=O)c1cc(-c2cc(C(=O)NC(C)(C)C)c3nc(N)nn3c2)cs1)c1ccc(F)cc1

>  <IC50, nM>
31

$$$$
>  <Compound>
C[C@H](NC(=O)c1cc(-c2ccc3nc(N)nn3c2)cs1)c1ccc(Cl)cc1

>  <IC50, nM>
210

$$$$
>  <Compound>
CC[C@H](NC(=O)c1cc(-c2cc(C(=O)N[C@@H](C)CO)c3nc(N)nn3c2)cs1)c1ccccc1

>  <IC50, nM>
1.8

$$$$
>  <Compound>
Nc1nc2ccc(-c3csc(C(=O)NC4CCOC4)c3)cn2n1 (centres unmarked)

>  <IC50, nM>
7600

$$$$
>  <Compound>
C[C@H](NC(=O)c1cc(-c2cc(C(=O)N[C@@H](C)CO)c3nc(N)nn3c2)cs1)c1ccc(F)cc1

>  <IC50, nM>
6.4

$$$$
>  <Compound>
Nc1nc2ccc(-c3csc(C(=O)NC4CCCc5cc(F)ccc54)c3)cn2n1 (centres unmarked)

>  <IC50, nM>
130

$$$$
>  <Compound>
COc1cccc(C(C)NC(=O)c2cc(-c3ccc4nc(N)nn4c3)cs2)c1 (centres unmarked)

>  <IC50, nM>
200

$$$$
>  <Compound>
Nc1nc2ccc(-c3csc(C(=O)NC4CCCCC4)c3)cn2n1

>  <IC50, nM>
1100

$$$$
>  <Compound>
CC(NC(=O)c1cc(-c2ccc3nc(N)nn3c2)cs1)c1cn[nH]c1 (centres unmarked)

>  <IC50, nM>
490

$$$$
>  <Compound>
CC(NC(=O)c1cc(-c2ccc3nc(N)nn3c2)cs1)c1nccn1C (centres unmarked)

>  <IC50, nM>
760

$$$$
>  <Compound>
COc1cccc(CN(C)C(=O)c2cc(-c3ccc4nc(N)nn4c3)cs2)c1

>  <IC50, nM>
2450

$$$$
>  <Compound>
Nc1nc2ccc(-c3csc(C(=O)NCC4CCCOC4)c3)cn2n1 (centres unmarked)

>  <IC50, nM>
1600

$$$$
>  <Compound>
CC(C)NC(=O)c1cc(-c2csc(C(=O)NCC3CC3)c2)cn2nc(N)nc12

>  <IC50, nM>
110

$$$$
>  <Compound>
C[C@H](NC(=O)c1cc(-c2cc(C(=O)NC3CC3)c3nc(N)nn3c2)cs1)c1ccccc1

>  <IC50, nM>
47

$$$$
>  <Compound>
CC[C@H](NC(=O)c1cc(-c2cc(C(=O)N[C@@H]3CCOC3)c3nc(N)nn3c2)cs1)c1ccccc1

>  <IC50, nM>
1.7

$$$$
>  <Compound>
C[C@H](NC(=O)c1cc(-c2cc(C(=O)N[C@@H](C)CO)c3nc(N)nn3c2)cs1)c1nc2ccccc2o1

>  <IC50, nM>
5.8

$$$$
>  <Compound>
Nc1nc2c(C(=O)NC3CNC3)cc(-c3csc(C(=O)NCc4ccc(F)cc4)c3)cn2n1

>  <IC50, nM>
220

$$$$
>  <Compound>
CC[C@H](NC(=O)c1cc(-c2cc(C(=O)NC(C)C)c3nc(N)nn3c2)cs1)c1ccc(F)cc1

>  <IC50, nM>
4

$$$$
